These data points were gathered from the supplement of paper PMC3334620.

- assayTarget: Pdr3 (UniProt P33200)
- Sequence: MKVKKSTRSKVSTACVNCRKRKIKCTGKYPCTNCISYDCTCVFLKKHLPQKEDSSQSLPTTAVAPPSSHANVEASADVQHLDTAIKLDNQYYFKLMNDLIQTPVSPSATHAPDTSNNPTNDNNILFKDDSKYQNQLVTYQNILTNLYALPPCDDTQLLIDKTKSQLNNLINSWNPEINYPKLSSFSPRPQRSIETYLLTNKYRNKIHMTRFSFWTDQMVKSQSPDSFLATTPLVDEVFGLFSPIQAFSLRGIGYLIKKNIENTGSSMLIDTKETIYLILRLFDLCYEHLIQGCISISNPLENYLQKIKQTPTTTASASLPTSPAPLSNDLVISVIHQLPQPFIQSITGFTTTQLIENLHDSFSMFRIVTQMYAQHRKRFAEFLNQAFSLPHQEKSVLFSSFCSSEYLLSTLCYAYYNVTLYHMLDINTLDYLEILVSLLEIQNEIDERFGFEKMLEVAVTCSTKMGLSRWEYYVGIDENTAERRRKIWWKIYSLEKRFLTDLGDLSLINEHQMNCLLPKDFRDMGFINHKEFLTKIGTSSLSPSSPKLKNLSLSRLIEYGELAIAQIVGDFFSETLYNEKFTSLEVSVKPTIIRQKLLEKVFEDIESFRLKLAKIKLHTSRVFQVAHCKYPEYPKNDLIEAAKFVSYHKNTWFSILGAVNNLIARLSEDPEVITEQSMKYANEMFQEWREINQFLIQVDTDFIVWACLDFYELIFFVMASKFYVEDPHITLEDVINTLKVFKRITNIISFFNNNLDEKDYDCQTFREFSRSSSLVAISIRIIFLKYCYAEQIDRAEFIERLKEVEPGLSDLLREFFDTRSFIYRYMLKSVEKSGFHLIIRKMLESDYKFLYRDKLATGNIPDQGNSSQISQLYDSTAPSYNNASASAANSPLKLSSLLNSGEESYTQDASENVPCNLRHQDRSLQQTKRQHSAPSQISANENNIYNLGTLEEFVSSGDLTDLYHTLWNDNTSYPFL
- assayProcedure: PBM E-score (8-mer binding enrichment) (E-score (-0.5 to 0.5)); higher = stronger / more preferred TF binding
- particulars: protein concentration: 200 nM; construct: GST-full length
Whole data set: some 33,000 sequences, median “E-score (-0.5 to 0.5)” near -0.035, cut for the highest 2% near 0.35. The entries come from a sample that favours the highest values as a whole.
PBM E-score of 0.2 or higher: Condition met. Under 0.2: Condition not met.

1) GTAAAAAC ... Condition not met
2) ATGCAGCA ... Condition not met
3) GCCAGTAC ... Condition not met
4) ATTTTGGC ... Condition not met
5) ACTTCCGC ... Condition met
6) AACGACCG ... Condition not met

# input Could you tell me if the measured PBM E-score of AGAAGGTA reaches 0.2 or more?
# output Condition not met

# input Could you tell me if the measured PBM E-score of AGAAGGGA reaches 0.2 or more?
# output Condition not met

# input Could you tell me if the measured PBM E-score of ATCTTCGA reaches 0.2 or more?
# output Condition not met

# input Could you tell me if the measured PBM E-score of ACCGGAAT reaches 0.2 or more?
# output Condition met

# input Could you tell me if the measured PBM E-score of ACTACGCA reaches 0.2 or more?
# output Condition not met

# input Could you tell me if the measured PBM E-score of CCGGCCTA reaches 0.2 or more?
# output Condition not met

# input Could you tell me if the measured PBM E-score of AATCCCCG reaches 0.2 or more?
# output Condition met

# input Could you tell me if the measured PBM E-score of CGTGCTAG reaches 0.2 or more?
# output Condition not met

# input Could you tell me if the measured PBM E-score of TAACGGGA reaches 0.2 or more?
# output Condition met

# input Could you tell me if the measured PBM E-score of ACTCCATA reaches 0.2 or more?
# output Condition not met

# input Could you tell me if the measured PBM E-score of CACGGAGG reaches 0.2 or more?
# output Condition met
